AC50 overview
target: PKR R532W (Homo sapiens, UniProt P30613, R532W); test: PKR Mutant Assay, dose response (AC50), PKR R532W; type: biochemical; conditions: PKR R532W mutant enzyme
Sequence (P30613 whole entry R532W): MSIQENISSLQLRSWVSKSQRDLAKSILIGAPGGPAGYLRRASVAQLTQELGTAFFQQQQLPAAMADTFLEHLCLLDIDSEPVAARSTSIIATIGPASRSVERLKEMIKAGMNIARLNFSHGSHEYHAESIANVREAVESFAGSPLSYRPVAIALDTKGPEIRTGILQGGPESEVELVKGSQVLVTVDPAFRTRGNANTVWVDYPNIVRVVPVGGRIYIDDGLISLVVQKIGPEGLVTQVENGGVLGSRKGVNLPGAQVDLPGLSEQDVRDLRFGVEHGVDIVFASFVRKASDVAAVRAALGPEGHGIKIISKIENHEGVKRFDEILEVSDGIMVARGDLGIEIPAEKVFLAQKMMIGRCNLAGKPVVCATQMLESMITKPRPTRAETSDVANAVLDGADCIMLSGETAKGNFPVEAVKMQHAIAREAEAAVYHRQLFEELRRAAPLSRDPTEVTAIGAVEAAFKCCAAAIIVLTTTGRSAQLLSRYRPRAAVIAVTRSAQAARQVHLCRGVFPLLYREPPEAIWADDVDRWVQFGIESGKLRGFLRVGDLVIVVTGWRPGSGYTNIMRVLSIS

**Query** Suppose we examine the compound CC(F)(F)CCC1(O)CCN(C(=O)c2ccc(NS(=O)(=O)c3cccc4nc(N)cnc34)cc2)CC1 [Compound 486] ; what AC50 value has been reported?
**Result** < 0.1 µM

**Query** What do you have for CN1CCC(CC2(O)CCN(C(=O)c3ccc(NS(=O)(=O)c4cccc5scnc45)cc3)CC2)C1=O (stereo not drawn) [Compound 488] ?
**Result** 0.101 to 1 µM

**Query** Moving on to the next compound: CC(C)CC1(O)CCN(C(=O)c2ccc(NS(=O)(=O)c3cncc4cccnc34)cc2)CC1 [Compound 513]
**Result** < 0.1 µM

**Query** And O=C(c1ccc(NS(=O)(=O)c2cccc3nccnc23)cc1)N1CCC(O)(Cc2cc[nH]n2)CC1 [Compound 500] ?
**Result** 0.101 to 1 µM

Continuing:
**Query** I would be grateful if you could share the reported AC50 for O=C1NCCC1CC1(O)CCN(C(=O)c2ccc(NS(=O)(=O)c3cccc4nccnc34)cc2)CC1 (stereo not drawn) [Compound 496] .
**Result** 1.01 to 10 µM

**Query** Please give the result for Nc1cnc2c(S(=O)(=O)Nc3ccc(C(=O)N4CCC(O)(c5cccc(F)c5F)CC4)cc3)cccc2n1 [Compound 493] too.
**Result** < 0.1 µM

**Query** Same thing, different compound: Cc1nscc1CC1(O)CCN(C(=O)c2ccc(NS(=O)(=O)c3cccc4ncsc34)cc2)CC1 [Compound 519]
**Result** < 0.1 µM

**Query** Another compound to look at: CCn1cc(CC2(O)CCN(C(=O)c3ccc(NS(=O)(=O)c4cccc5nccnc45)cc3)CC2)cn1 [Compound 503]
**Result** 0.101 to 1 µM

* * *

biological target: PKR R510Q (Homo sapiens, UniProt P30613, R510Q); experiment: PKR Mutant Assay, dose response (AC50), PKR R510Q; format: biochemical; settings: PKR R510Q mutant enzyme
Sequence (P30613 whole entry R510Q): as the sequence (P30613 whole entry R532W) above, with R510Q, W532R counted along it
Documented AC50 across a set of compounds

Observe how each entry below is paired with its result.
**Query** Query (compound): `CC(F)(F)CCC1(O)CCN(C(=O)c2ccc(NS(=O)(=O)c3cccc4scnc34)cc2C#N)CC1` ; field requested: AC50
**Result** 1.01 to 10 µM

**Query** Quick one: `Cc1nscc1CC1(O)CCN(C(=O)c2ccc(NS(=O)(=O)c3cccc4nccnc34)cc2)CC1`
**Result** < 0.1 µM

# input for lookup
**Query** Would you kindly share the measured AC50 for `CC(F)(F)CCC1(O)CCN(C(=O)c2ccc(NS(=O)(=O)c3cc(F)cc4sc(N)nc34)cc2C#N)CC1` ?
**Result** 0.101 to 1 µM

* * *

biological target: wt PKR (Homo sapiens); test: wt PKR cell based assay
Sequence (P30613 whole entry): as the sequence (P30613 whole entry R532W) above, with W532R counted along it
Each item that follows carries a reported AC50.

**Query** For the compound O=C(c1ccc(NS(=O)(=O)c2cccc3nccnc23)cc1)N1CCC(O)(c2sncc2Cl)CC1 [Compound 516] , what AC50 is on record?
**Result** < 100 nM

**Query** Same for Nc1cnc2c(S(=O)(=O)Nc3ccc(C(=O)N4CCC(O)(c5cccc(F)c5F)CC4)cc3)cccc2n1 [Compound 493]
**Result** < 100 nM

**Query** Moving on to the next compound: Cc1n[nH]c(C)c1CC1(O)CCN(C(=O)c2ccc(NS(=O)(=O)c3cccc4nccnc34)cc2)CC1 [Compound 512]
**Result** 101 to 1000 nM

**Query** Same question for Cc1noc(C)c1CC1(O)CCN(C(=O)c2ccc(NS(=O)(=O)c3cccc4scnc34)cc2)CC1 [Compound 520] please.
**Result** 101 to 1000 nM

Others:
**Query** // lookup AC50 for Cc1noc(C)c1CC1(O)CCN(C(=O)c2ccc(NS(=O)(=O)c3cccc4nccnc34)cc2)CC1 [Compound 521]
**Result** < 100 nM

Taken from patent US20160046579A1.
